tested on: A549; assay: Euclidean distance of Cell Painting phenotypic profile (signed KS, 77 features) to DMSO centroid (dimensionless distance); 5 or 10 uM (library dependent); higher = stronger phenotypic change vs DMSO (phenoactivity); details: 48 h
metric: Euclidean distance

1) NC(=O)/N=N/C(N)=O [Azodicarbonamide]; 0.533
2) COc1c(C)cnc(Cn2cnc3c(Cl)nc(N)nc32)c1C; 3.08
3) Clc1ccc(C(c2ccccc2Cl)C(Cl)Cl)cc1 (centres undefined); 0.919
4) Nc1ncc2ncn(CC3(OCP(=O)(O)O)CC3)c2n1; 0.329

* * *

tested on: 786-O; experiment: Euclidean distance of Cell Painting phenotypic profile (signed KS, 77 features) to DMSO centroid (dimensionless distance); 5 or 10 uM (library dependent); higher = stronger phenotypic change vs DMSO (phenoactivity); conditions: 48 h
Structures can show the parent of a compound that is named as a salt.
metric: Euclidean distance

1. Nc1cc(C(Cl)=C(Cl)Cl)c(S(N)(=O)=O)cc1S(N)(=O)=O; 1.15
2. COc1ccnc(C[S+]([O-])c2nc3cc(OC(F)F)ccc3[nH]2)c1OC (stereo unspecified) [Pantoprazole]; 1.16
3. Nc1nc(F)nc2c1ncn2[C@@H]1O[C@H](COP(=O)(O)O)[C@@H](O)[C@@H]1O [Fludarabine Phosphate]; 2.13
4. C[C@]12C=CC(=O)C=C1CC[C@@H]1[C@@H]2[C@@H](O)C[C@@]2(C)[C@H]1CC[C@]2(O)C(=O)CO; 1.51
5. NCCOB(c1ccccc1)c1ccccc1 [2-Aminoethyl Diphenylborinate (2-APB)]; 1.61
6. CCN(CC)CCOc1ccc2c(c1)C(=O)c1cc(OCCN(CC)CC)ccc1-2 [Tilorone dihydrochloride]; 2.8
7. C=C(CC)C(=O)c1ccc(OCC(=O)O)c(Cl)c1Cl; 1.19
8. Cc1cc(Nc2ncnc3ccc(NC4=NC(C)(C)CO4)cc23)ccc1Oc1ccn2ncnc2c1; 1.56
9. CS(=O)(=O)n1cc2c(n1)CN([C@H]1CO[C@H](c3cc(F)ccc3F)[C@@H](N)C1)C2; 1.02
10. C[C@H](Nc1ncnc2[nH]cnc12)c1cc2ccc(F)cc2nc1-c1ccccn1; 0.651
11. OCCN1CCN(CCCN2c3ccccc3Sc3ccc(Cl)cc32)CC1; 1.95

* * *

tested on: A549; assay: Euclidean distance of Cell Painting phenotypic profile (signed KS, 77 features) to DMSO centroid (dimensionless distance); 5 or 10 uM (library dependent); higher = stronger phenotypic change vs DMSO (phenoactivity); conditions: 48 h
Where a name gives a salt, the structure may show the parent alone.
Label n if Euclidean distance falls below 1; label y in every other case.

1) CCN(Cc1ccncc1)C(=O)C(CO)c1ccccc1 (stereo not given) [Tropicamide]; y
2) C[C@H](CCC(=O)O)[C@H]1CC[C@H]2[C@@H]3[C@H](O)C[C@@H]4C[C@H](O)CC[C@]4(C)[C@H]3C[C@H](O)[C@]12C; n
3) Cc1ccsc1C(=CCCN1CCC[C@@H](C(=O)O)C1)c1sccc1C; n
4) COCCOc1ccc2c(c1)ncn2-c1ccc2cccc(N3CCC(N)CC3)c2n1; y
5) Cn1cnc2c(F)c(Nc3ccc(Br)cc3Cl)c(C(=O)NOCCO)cc21; y
6) CC(S)C(=O)NCC(=O)O (stereo not given); n
7) NNC(=O)c1ccncc1; y
8) CC(C)c1c(C(=O)Nc2ccccc2)c(-c2ccccc2)c(-c2ccc(F)cc2)n1CC[C@@H](O)C[C@@H](O)CC(=O)O [atorvastatin]; y
9) Cc1cncc(CN2CCC(=C3c4ccc(Cl)cc4CCc4cccnc43)CC2)c1 [Rupatadine Fumarate]; y
10) Oc1cccc(-c2nc(N3CCOCC3)c3oc4ncccc4c3n2)c1; y
11) Cc1cn(-c2cc(NC(=O)c3ccc(C)c(Nc4nccc(-c5cnccn5)n4)c3)cc(C(F)(F)F)c2)cn1; y
12) Cc1[nH]c2ccccc2c1CCNCc1ccc(/C=C/C(=O)NO)cc1; y
13) COc1ccc2cc([C@H](C)C(=O)O)ccc2c1 [Naproxen Sodium]; n
14) Nc1nc2[nH]cnc2c(=S)[nH]1; y
15) Cc1cc(C(C)Nc2ccccc2)c2nc(N3CCOCC3)cc(=O)n2c1 (stereo not given); y
